Test system: Canis familiaris
Assay: Toxicity in telemetered beagle dog assessed as increase in heart rate at 75 mg/kg administered via oral gavage measured over 24 hrs
Format: organism-based, Canis lupus familiaris
Conditions: in vivo
property: Activity

Value sought: Activity, system Canis familiaris, item CS(=O)(=O)O.O=C([C@@H]1CCCN(c2ccc3nc(C4(n5cc(Cl)cn5)CC4)[nH]c3n2)C1)N1CCCC1 . Result: 8 to 30 bpm

---

Test: Thermodynamic solubility of the compound at pH 6.5
Type: physicochemical
Conditions: buffer, read-out: Therm_solubility
Would you kindly list solubility thermodynamic for each of these molecules?
Give bare numbers, in µg/mL.

C[C@@H](c1nc2ccc(N3CCC[C@@H](C(=O)N4CCCC4)C3)nc2[nH]1)n1cc(Cl)cn1 | 285

// switching to the query molecule
The recorded solubility thermodynamic for CC(c1nc2cnc(N3CCC[C@@H](C(=O)N4CCCC4)C3)nc2[nH]1)n1cc(Cl)cn1 (single isomer, unassigned; diastereomer 1) is 53
